Data origin, for the record: patent US8278301B2

Recorded pKi for the following compounds
assayed.system: human 5-HT3 receptor (Homo sapiens, UniProt P46098)
Sequence (P46098 24-478): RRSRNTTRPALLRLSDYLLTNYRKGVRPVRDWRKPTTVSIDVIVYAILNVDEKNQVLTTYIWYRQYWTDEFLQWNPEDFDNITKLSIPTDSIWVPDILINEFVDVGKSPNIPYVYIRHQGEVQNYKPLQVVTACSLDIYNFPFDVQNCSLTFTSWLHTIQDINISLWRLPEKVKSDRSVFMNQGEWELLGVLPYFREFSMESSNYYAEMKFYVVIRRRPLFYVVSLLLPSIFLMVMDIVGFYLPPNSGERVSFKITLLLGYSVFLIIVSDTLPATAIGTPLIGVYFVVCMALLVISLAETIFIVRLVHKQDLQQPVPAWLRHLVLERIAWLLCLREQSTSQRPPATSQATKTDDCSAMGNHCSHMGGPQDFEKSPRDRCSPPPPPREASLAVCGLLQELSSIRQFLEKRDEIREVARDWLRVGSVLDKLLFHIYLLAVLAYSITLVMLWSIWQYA
protocol.notes: Compound affinity for the human 5-HT3 receptor (Assay D), [3H]BRL 43694 radioligand binding, Cerep
Design: host or cells: CHO cells
pKi: −log10 of the molar value. Structures can show the parent of a compound that is named as a salt.

compound	pKi
CN1[C@@H]2CCC[C@H]1C[C@@H](NC(=O)c1cccc3oc(Cc4ccccc4)nc13)C2 [Example 9, Hydrochloride]	7.96
O=C(N[C@@H]1CN2CCC1CC2)c1cccc2oc(C3CCC3)nc12 [Example 18, Hydrochloride]	8.15
CN1[C@@H]2CCC[C@H]1C[C@@H](NC(=O)c1cccc3oc(CC4CC4)nc13)C2 [Example 11, Hydrochloride]	8.07
CN1[C@@H]2CCC[C@H]1C[C@@H](NC(=O)c1cccc3oc(C4(C)CC4)nc13)C2 [Example 7, Hydrochloride]	8.48
CN1[C@@H]2CCC[C@H]1C[C@@H](NC(=O)c1cccc3oc(C4CCC4)nc13)C2 [Example 17, Hydrochloride]	8.15
Cc1nc2c(C(=O)N[C@@H]3CN4CCC3CC4)cccc2o1	7.92
O=C(N[C@@H]1CN2CCC1CC2)c1cccc2oc(CC3CC3)nc12 [Example 12, Hydrochloride]	7.59

###

Recorded measurements of pKi, one per entry
assayed.system: human 5-HT3 receptor (Homo sapiens, UniProt P46098)
Sequence (P46098 24-478): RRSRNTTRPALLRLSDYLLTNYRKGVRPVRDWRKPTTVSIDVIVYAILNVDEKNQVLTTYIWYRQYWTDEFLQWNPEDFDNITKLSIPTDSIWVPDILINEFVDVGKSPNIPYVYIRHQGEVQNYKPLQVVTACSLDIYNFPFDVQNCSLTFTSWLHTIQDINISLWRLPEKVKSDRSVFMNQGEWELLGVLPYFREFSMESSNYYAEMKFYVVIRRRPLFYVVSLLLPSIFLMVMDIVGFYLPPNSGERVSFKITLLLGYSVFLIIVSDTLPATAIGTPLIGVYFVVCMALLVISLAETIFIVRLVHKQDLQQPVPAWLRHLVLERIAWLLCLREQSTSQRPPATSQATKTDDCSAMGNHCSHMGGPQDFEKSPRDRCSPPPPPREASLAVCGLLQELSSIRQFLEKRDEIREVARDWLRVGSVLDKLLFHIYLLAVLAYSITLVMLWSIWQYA
protocol.notes: Compound affinity for the human 5-HT3 receptor (Assay D), [3H]BRL 43694 radioligand binding, Cerep
Parameters: host or cells: CHO cells
pKi: −log10 of the molar value. Counter-ions that a name gives are not always drawn.
outcome.measure: pKi

compound	quantitative.result
CC1(c2nc3c(C(=O)N[C@@H]4CN5CCC4CC5)cccc3o2)CC1 [Example 8, Hydrochloride]	7.72
Cc1nc2c(C(=O)N[C@H]3C[C@H]4CCC[C@@H](C3)N4C)cccc2o1	8.26
CC(C)(C)c1nc2c(C(=O)N[C@@H]3CN4CCC3CC4)cccc2o1	7.52
CN1[C@@H]2CCC[C@H]1C[C@@H](NC(=O)c1cccc3oc(C(C)(C)C)nc13)C2	8.33
